assay: qHTS assay to identify small molecule antagonists of the retinoid-related orphan receptor gamma (ROR-gamma) signaling pathway - cell viability counter screen (AID 1159520); also: nearly all actives have a fitted effect of over 50% in size
experimental-context: Tet-on RORgamma CHO cells viability, ATP luminescence, 16 h; series mostly up to 92.4 µM
Results filed as inconclusive are left out. Calls of active or inactive are those of the source. Calls follow the shape of the dose curve; as a rule, active = well fitted cell-killing curve with a large enough effect in the repeat runs; inconclusive = weak or mixed curves, or effect the other way; inactive = no such curve, though single readings can be large or run the other way.
Outcome codes: True for active, False for inactive

compound: C#C[C@]1(OC(C)=O)CC[C@H]2[C@@H]3CCC4=C[C@@H](OC(C)=O)CC[C@@H]4[C@H]3CC[C@@]21C
label-class: False
--
compound: COC(=O)c1ccccc1OC
label-class: False
--
compound: C=C(C)C(=O)OCCCCCCCCCC
label-class: False
--
compound: CC(C)OC(=O)C(O)(CC(=O)O)CC(=O)O
label-class: False
--
compound: CC(C)NC[C@@H](O)COc1ccc(CC(N)=O)cc1
label-class: False
--
compound: C=Cc1ccccc1C=C
label-class: False
--
compound: Cc1ccc(N/N=c2\c(=O)cc/c(=N\Nc3ccc(S(=O)(=O)O)cc3)c2=O)c(C)c1
label-class: False
--
compound: O=C(O)Cc1ccccc1Nc1c(Cl)cccc1Cl
label-class: False
--
compound: O=C(c1ccc(O)c(O)c1)c1ccc(O)cc1O
label-class: False
--
compound: O=C(O)c1cccc(C(F)(F)F)c1
label-class: False
--
compound: Fc1ccc(C(c2ccc(F)cc2)N2CCNCC2)cc1
label-class: False
--
compound: Nc1nc(-c2ccccc2)cs1
label-class: False
--
compound: CC[N+](CC)(CC)CCOC(=O)C(C1CCCC1)C1CCCC1
label-class: False
--
compound: O=C(/C=C/c1ccccc1)OC/C=C/c1ccccc1
label-class: True
--
compound: O=c1oc2cc(O)ccc2c2oc3cc(O)ccc3c12
label-class: False
--
compound: c1cnccn1
label-class: False
--
compound: CC(C)CCOC(=O)/C=C/c1ccccc1
label-class: False
--
compound: CC(=O)c1ccc(C(C)=O)cc1
label-class: False
--
compound: O=C1CCc2ccc(OCCCCN3CCN(c4cccc(Cl)c4Cl)CC3)cc2N1
label-class: False
--
compound: CCCCNS(=O)(=O)c1ccc(C)cc1
label-class: False
--
compound: COc1cccc(OC)c1C(=O)O
label-class: False
--
compound: O=S(=O)(O)c1ccccc1/C=C/c1ccc(-c2ccc(/C=C/c3ccccc3S(=O)(=O)O)cc2)cc1
label-class: False
--
compound: C=CCCC(=O)/C=C/C1C(C)=CCCC1(C)C (configuration not stated)
label-class: False
--
compound: ClCCl
label-class: False
--
compound: Nc1nc(N)nc(-c2cc(Cl)ccc2Cl)n1
label-class: False
--
compound: C=C(CC)C(=O)c1ccc(OCC(=O)O)c(Cl)c1Cl
label-class: False
--
compound: CC(C)CCCCCOC(=O)CCS
label-class: False
